Some compounds, each annotated with its measured efflux ratio.
Target: MDR1 (ABCB1, P-glycoprotein) (Homo sapiens, UniProt P08183)
Sequence (P08183 whole entry): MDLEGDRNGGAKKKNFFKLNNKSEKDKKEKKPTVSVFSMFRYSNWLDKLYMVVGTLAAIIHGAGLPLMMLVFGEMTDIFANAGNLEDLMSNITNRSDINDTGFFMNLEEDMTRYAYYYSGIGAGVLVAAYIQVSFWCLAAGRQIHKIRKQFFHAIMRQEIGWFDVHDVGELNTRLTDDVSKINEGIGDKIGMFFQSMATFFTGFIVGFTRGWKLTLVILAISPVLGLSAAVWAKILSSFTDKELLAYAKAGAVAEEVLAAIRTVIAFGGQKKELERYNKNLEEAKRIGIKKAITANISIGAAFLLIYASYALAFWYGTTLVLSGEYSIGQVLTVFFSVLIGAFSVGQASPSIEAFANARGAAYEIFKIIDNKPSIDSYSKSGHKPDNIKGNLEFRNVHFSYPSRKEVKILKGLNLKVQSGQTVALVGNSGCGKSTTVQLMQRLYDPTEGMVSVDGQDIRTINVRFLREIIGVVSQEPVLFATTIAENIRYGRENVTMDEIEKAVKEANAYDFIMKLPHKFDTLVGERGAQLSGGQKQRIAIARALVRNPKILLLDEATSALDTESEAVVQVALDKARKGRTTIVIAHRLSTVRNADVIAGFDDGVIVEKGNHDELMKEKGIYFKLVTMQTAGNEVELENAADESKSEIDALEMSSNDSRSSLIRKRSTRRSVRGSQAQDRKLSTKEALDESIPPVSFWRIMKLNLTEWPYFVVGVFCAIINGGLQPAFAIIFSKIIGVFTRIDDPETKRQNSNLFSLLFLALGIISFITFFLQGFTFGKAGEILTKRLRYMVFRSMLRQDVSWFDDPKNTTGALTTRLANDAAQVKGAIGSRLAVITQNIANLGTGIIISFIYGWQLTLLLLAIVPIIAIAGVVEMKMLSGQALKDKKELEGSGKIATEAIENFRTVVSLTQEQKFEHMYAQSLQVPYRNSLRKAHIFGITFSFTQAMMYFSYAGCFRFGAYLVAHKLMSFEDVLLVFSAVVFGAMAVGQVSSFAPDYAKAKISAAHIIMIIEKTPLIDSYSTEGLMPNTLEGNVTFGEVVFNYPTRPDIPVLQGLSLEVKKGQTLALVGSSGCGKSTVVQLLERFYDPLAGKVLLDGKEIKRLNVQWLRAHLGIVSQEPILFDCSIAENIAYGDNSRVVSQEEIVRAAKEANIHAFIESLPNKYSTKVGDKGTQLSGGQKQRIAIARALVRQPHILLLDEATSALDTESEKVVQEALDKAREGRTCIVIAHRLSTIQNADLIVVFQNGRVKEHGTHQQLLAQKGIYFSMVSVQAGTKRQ
Experiment: Activity at MDR1 in human Caco2 cells assessed as efflux ratio of apparent permeability from basolateral to apical side over apical to basolateral side
Format: cell-based
Details: Caco-2
Answer with a bare number; do not write a unit.

COc1cc2c(cc1OC)CN(Cc1ccc(-c3ccc4c(c3)C(=O)C(=O)N4)cc1)CC2    8.1

Any idea what its efflux ratio is? The compound is `COc1cc2c(cc1OC)CN(Cc1ccc(-c3ccc(O)cc3)cc1)CC2` 1.3

Any idea what its efflux ratio is? The compound is `COc1cc2c(cc1OC)CN(Cc1ccc(-c3ccc(NS(=O)(=O)c4ccccc4)cc3)cc1)CC2` 15

Any idea what its efflux ratio is? The compound is `COc1cc2c(cc1OC)CN(Cc1ccc(-c3ccc4[nH]ccc4c3)cc1)CC2` 1.9

Any idea what its efflux ratio is? The compound is `COc1cc2c(cc1OC)CN(Cc1ccc(-c3ccc4c(c3)CC(=O)N4)cc1)CC2` 3.6
